Hello, the source for this data is patent US20230126447A1, in case you need it.

Assay: Ocular tissue distribution and pharmacokinetics, 7.5 and 15 mg/kg oral, pigmented Dutch Belted rabbits (Example 7)
Format: in vivo
Conditions: Dutch Belted, rabbit, choroid-retinal pigment epithelium (choroid-RPE), oral, […], DB rabbits, Day 1, […] single dose, 240 hr; read-out: Mean Choroid-RPE Concentration
Measured quantity: concentration at 240 h (ng/g)
Give bare numbers, in ng/g.

Entry CC(=O)c1nn(CC(=O)N2C[C@H](F)C[C@H]2C(=O)Nc2cccc(Br)n2)c2ccc(-c3cnc(C)nc3)cc12 : reported concentration at 240 h = ? 5.23

* * *

Assay: Ocular tissue and plasma pharmacokinetics, 15 mg/kg single and BID oral, Dutch Belted rabbits (Example 3/5)
Type: in vivo
Details: Dutch Belted, rabbit, choroid-RPE, po, 15 mg/kg, DB rabbit, 15 mg/kg BID oral, Day 15, 0 h; read-out: Mean Choroid-RPE concentration
Measured quantity: concentration at 0 h
Write the numeric value and append its unit.

Entry CC(=O)c1nn(CC(=O)N2C[C@H](F)C[C@H]2C(=O)Nc2cccc(Br)n2)c2ccc(-c3cnc(C)nc3)cc12 : reported concentration at 0 h = ? 2460 ng/g
